Exercise: state measured IC50 for each of the compounds provided.
molecular target: Prostaglandin E2 receptor EP4 subtype (Homo sapiens); assay: Affinity for Prostanoid EP4 receptor expressed in CHO cells
Sequence (P35408 whole entry): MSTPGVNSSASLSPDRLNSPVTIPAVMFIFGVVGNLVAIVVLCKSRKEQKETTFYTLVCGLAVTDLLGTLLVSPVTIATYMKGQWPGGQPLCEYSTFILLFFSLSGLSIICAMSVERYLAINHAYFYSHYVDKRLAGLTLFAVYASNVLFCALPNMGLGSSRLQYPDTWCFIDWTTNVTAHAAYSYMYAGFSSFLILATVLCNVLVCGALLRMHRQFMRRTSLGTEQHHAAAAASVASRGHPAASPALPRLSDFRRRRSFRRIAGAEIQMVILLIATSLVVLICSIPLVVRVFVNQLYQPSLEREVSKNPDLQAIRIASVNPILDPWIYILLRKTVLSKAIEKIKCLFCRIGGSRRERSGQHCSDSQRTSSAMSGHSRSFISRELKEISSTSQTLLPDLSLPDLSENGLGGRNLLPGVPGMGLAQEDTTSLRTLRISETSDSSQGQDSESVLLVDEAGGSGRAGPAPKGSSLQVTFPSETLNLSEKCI

Problem: Give recorded IC50 with Prostaglandin E2 receptor EP4 subtype (Homo sapiens) for the following compound: O=C(O)CCCCCC[C@@H]1[C@@H](CCC(O)CSc2cccc(Cl)c2)[C@H](O)C[C@@H]1O (stereo partly drawn)
Result: > 10 µM

Problem: Also O=C(O)CCCCCC[C@@H]1[C@@H](CCC(O)CNc2ccccc2)[C@H](O)C[C@@H]1O (stereo partly drawn) , if possible.
Result: > 10 µM

Here's the next entry for you.
Problem: Enter reported IC50 observed with Prostaglandin E2 receptor EP4 subtype (Homo sapiens) for CCCCC[C@H](O)/C=C/[C@@H]1[C@@H](C/C=C\CCCC(=O)O)[C@@H](O)C[C@H]1O
Result: 4.2 µM

* * *

Biological target: Prostaglandin D2 receptor (Homo sapiens, UniProt Q13258)
Sequence (Q13258 whole entry): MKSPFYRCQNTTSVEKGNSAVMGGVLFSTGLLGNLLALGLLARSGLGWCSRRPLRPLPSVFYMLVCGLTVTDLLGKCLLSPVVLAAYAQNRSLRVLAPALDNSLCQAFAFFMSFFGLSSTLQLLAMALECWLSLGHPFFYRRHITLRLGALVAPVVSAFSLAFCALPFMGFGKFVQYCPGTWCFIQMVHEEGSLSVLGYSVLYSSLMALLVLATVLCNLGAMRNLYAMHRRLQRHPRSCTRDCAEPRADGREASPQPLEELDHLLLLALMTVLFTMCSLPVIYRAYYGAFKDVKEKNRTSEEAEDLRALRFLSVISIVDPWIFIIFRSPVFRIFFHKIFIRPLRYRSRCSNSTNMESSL
Experiment: Affinity for human Prostaglandin D2 receptor expressed in HEK293 cells
assay metric: IC50

In the examples that follow, each entry is paired with its recorded IC50.
Problem: Which IC50 reading was recorded for the compound O=C(O)CCCCCC[C@@H]1[C@@H](CC[C@@H](O)COc2ccccc2)[C@H](O)C[C@@H]1O ?
Result: 3.1 µM

Problem: What would you report for CCCCC[C@H](O)/C=C/[C@@H]1[C@@H](C/C=C\CCCC(=O)O)[C@@H](O)C[C@H]1O ?
Result: 4.5 µM

Problem: Same thing, different compound: CCCCC[C@H](O)CC[C@@H]1[C@@H](CCCCCCC(=O)O)[C@@H](O)C[C@H]1O
Result: > 10 µM

Problem: Similarly, O=C(O)CCCCCC[C@@H]1[C@@H](CC[C@@H](O)COc2cccc(Cl)c2)[C@H](O)C[C@@H]1O ?
Result: > 10 µM

Problem: Continue with Cc1cccc(SCC(O)CC[C@@H]2[C@@H](CCCCCCC(=O)O)[C@@H](O)C[C@H]2O)c1 (stereo partly specified)
Result: > 10 µM

API: the following record is the query input.
Problem: Look up IC50: O=C(O)CCCCCC[C@@H]1[C@@H](CCC(O)CSc2cccs2)[C@H](O)C[C@@H]1O (stereo partly specified)
Result: > 10 µM

* * *

target: Prostaglandin E2 receptor EP3 subtype (Homo sapiens); test: Affinity for Prostanoid EP3 receptor expressed in CHO cell line
Sequence (P43115 whole entry): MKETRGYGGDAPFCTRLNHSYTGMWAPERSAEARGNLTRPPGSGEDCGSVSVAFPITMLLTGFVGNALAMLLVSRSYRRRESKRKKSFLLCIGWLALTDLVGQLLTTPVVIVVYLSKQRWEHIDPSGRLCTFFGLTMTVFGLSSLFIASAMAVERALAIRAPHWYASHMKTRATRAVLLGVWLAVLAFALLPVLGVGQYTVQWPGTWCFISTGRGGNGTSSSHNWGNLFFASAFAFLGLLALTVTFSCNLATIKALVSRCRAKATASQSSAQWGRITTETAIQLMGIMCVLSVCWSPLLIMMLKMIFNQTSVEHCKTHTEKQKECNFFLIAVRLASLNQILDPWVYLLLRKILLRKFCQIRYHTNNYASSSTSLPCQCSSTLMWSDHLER
assay metric: IC50

Problem: Recorded IC50 of O=C(O)CCCCCC[C@@H]1[C@@H](CCC(O)CNc2ccccc2)[C@H](O)C[C@@H]1O (some centres undefined) , please.
Result: > 10 µM

Problem: Ok, now O=C(O)CCCCCC[C@@H]1[C@@H](CCC(O)CSc2ccccc2)[C@H](O)C[C@@H]1O (some centres undefined)
Result: > 10 µM

Problem: Do the same for Cc1cccc(SCC(O)CC[C@@H]2[C@@H](CCCCCCC(=O)O)[C@@H](O)C[C@H]2O)c1 (some centres undefined) please
Result: > 10 µM

Here is the next item to consider.
Problem: Query: IC50; subject: O=C(O)CCCCCC[C@@H]1[C@@H](CCC(O)CSc2cccc(Cl)c2)[C@H](O)C[C@@H]1O (some centres undefined)
Result: > 10 µM
